Assayed system: HLA-B*5401 (human)
Condition: remark: other sources report otherwise
Reported property: IC50

Recorded result, NPAIASLMAF (modifications not checked) [Peptide 15.0237, HCV NS4 1789] , IC50: > 30 µM
